Reported values of Potency for individual entries
SYSTEM_TESTED: DNA dC->dU-editing enzyme APOBEC-3G (Homo sapiens)
EXPERIMENT_DESCRIPTION: qHTS for inhibitors of Vif-A3G interactions: Cherry picks counterscreen;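 further: hits raise yellow fluorescence by blocking Vif-driven A3G-eYFP degradation; nearly all actives have a fitted effect of over 70% in size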; further: potency means the concentration at half of the fitted maximal effect
REPORTED_CONDITIONS: HeLa A3G-eYFP + Vif, eYFP fluorescence, 24 h
About 1,100 (52%) of roughly 2,100 compounds were called active. Another 27% or so got no clear call; they are omitted. So high a share suggests a set chosen from earlier hits. This is one part of the list.

Consider the following illustrative entries.
- CCSC1=N/C(=C\C=C2/Oc3ccccc3N2CC)C(=O)S1: 8.2 µM (active)
- O=c1c(Cl)c2oc3ccccc3nc-2c2ccccc12: 10.3 µM (active)
- Cc1cc(NC(=O)/C(C#N)=C\c2ccc(-c3ccc(SC(F)F)cc3)o2)n(-c2ccccc2)n1: 2.59 µM (active)

**Q:** What measured Potency goes with CN(C)c1ccc(/C=C(/C#N)C(=O)NCc2ccccc2)o1 ?
**A:** 1.84 µM (active)

**Q:** Requested field: Potency. Item: Cc1cc(NC(=O)/C(C#N)=C/c2ccc(-c3ccc(SC(F)F)cc3)o2)n(-c2ccccc2)n1
**A:** 4.61 µM (active)

**Q:** Would you kindly share the measured Potency for Cc1c(Cl)cccc1-c1ccc(/C=C(\C#N)c2nc3ccccc3[nH]2)o1 ?
**A:** 10.3 µM (active)

**Q:** Which measured Potency value corresponds to C=CCN1C(=O)/C(=C2/Sc3ccc(OC)cc3N2CC)SC1=S ?
**A:** 11.6 µM (active)

**Q:** Please report the recorded Potency for CN(C)c1ccc(C=Cc2nccc3ccccc23)cc1 .
**A:** 14 µM (active)

**Q:** Item N#C/C(=C\c1ccc(N2CCCCC2)o1)C(N)=O has what recorded Potency?
**A:** 15.8 µM (active)

**Q:** Which Potency is listed for N#C/C(=C\c1ccc(N2CCOCC2)o1)C(=O)NCCc1ccccc1 ?
**A:** 3.26 µM (active)

**Q:** For the compound COc1ccc(S(=O)(=O)Nc2cccc(-c3ccc4nncn4n3)c2)cc1F , what Potency is on record?
**A:** 4.44 µM (active)

**Q:** Find the recorded Potency belonging to Cn1cccc1/C=C1\SC(=Nc2cccc(O)c2)NC1=O and report it.
**A:** 11.2 µM (active)

**Q:** Recorded Potency of CCN(Cc1ccccc1)c1ccc(/C=C/c2nccc3ccccc23)cc1 , please.
**A:** 13 µM (active)

**Q:** Please look up its Potency: COc1ccc2c(c1)c(C(=O)N/N=C/c1ccc(Cl)cc1)c(C)n2C
**A:** 12.5 µM (active)

###

Recorded measurements of max response, one per entry
SYSTEM_TESTED: DNA dC->dU-editing enzyme APOBEC-3G (Homo sapiens)
EXPERIMENT_DESCRIPTION: qHTS for inhibitors of Vif-A3G interactions: Cherry picks counterscreen;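 further: hits raise yellow fluorescence by blocking Vif-driven A3G-eYFP degradation; nearly all actives have a fitted effect of over 70% in size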;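 on max response: max response given as percent of control signal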
REPORTED_CONDITIONS: HeLa A3G-eYFP + Vif (tagged APOBEC3G with the HIV-1 protein that degrades it), eYFP fluorescence, 24 h
Among all 2,100 compounds or so, about 1,100 (52%) were called active. Not shown: some 27% with an inconclusive outcome. The set was probably picked from earlier hits. This is one part of the list.
Note: unit % is implicit; provide only the numeric part.

**Q:** // max response lookup, key: COc1ccccc1-c1cc(C(=O)NN)[nH]n1
**A:** 14.5

**Q:** Param item = CCOc1ccc(/C=N/NC(=O)c2cc3c(OC)cccc3[nH]2)cc1 ; retrieve measured max response.
**A:** 2.03

**Q:** Name the reported max response value associated with the compound Cc1ccc(C(=O)O)cc1Nc1nc2ccccc2n2nnnc12
**A:** -28

**Q:** Report max response for CC(=O)Nc1ccc2c(c1)Cc1ccc(Cl)cc1-2 please.
**A:** -8.49

**Q:** # lookup: max response of c1ccc2c(c1)nc(N1CCOCC1)c1nnnn12
**A:** -18.6

**Q:** Find the recorded max response belonging to C=CCOC(=O)C1=C(C)NC(C)=C(C(=O)OCC=C)C1c1cn(-c2ccccc2)nc1-c1ccco1 and report it.
**A:** -22.7

**Q:** Query (compound): O=C1/C(=C/c2ccc(O)cc2)SC(=S)N1Cc1cccnc1 ; field requested: max response
**A:** -0.458

**Q:** Reported max response, compound Cc1ccc(S(=O)c2ccc([N+](=O)[O-])c3nonc23)cc1 (stereo unspecified) : ____
**A:** 28.3

**Q:** Query: max response; subject: Cc1ccc(S(=O)(=O)c2cc3ccccc3oc2=Nc2ccc3c(c2)OCO3)cc1
**A:** 12.1

**Q:** Please report the recorded max response for O=C(Nc1nc2c(F)cccc2s1)c1ccc([N+](=O)[O-])o1 .
**A:** -8.08

**Q:** State the recorded max response for this entry: CC(NC(=S)Nc1cccc(C(F)(F)F)c1)C(C)(C)C (stereo unspecified)
**A:** 21.6
